Could you please report measured EC50 for the items listed next?
# Test system: HepG-2
# assay_procedure: ATP-based luminescence cell viability assay (ViaLight), 72 h
# Design: species or system human
# reported_conditions: Homo sapiens, HepG2, 72 h, 72 h treatment, read-out: EC50 Values of Olive Oil Polyphenols
Write the figure, then the unit, nothing else.

Before answering, review these 2 worked examples.
C/C=C(/C=O)[C@@H](CC=O)CC(=O)OCCc1ccc(O)c(O)c1 : 82.8 µM
COC(=O)C1=COC(C)[C@@H](C=O)[C@@H]1CC(=O)OCCc1ccc(O)c(O)c1 (mixture of isomers) : 17.7 µM

Now examine the next entry.
EC50 reading for `C/C=C(/C=O)[C@@H](CC=O)CC(=O)OCCc1ccc(O)cc1` : 40 µM
